system: synchronised Plasmodium falciparum 3D7 cultures; assay: In vitro flux measurements of glucose and amino acids in spent media; type: cell-based; conditions: early to mid-ring stage; ± SD; positive = into infected red blood cell, negative = efflux into media
Measure: flux 6 - 18 hps
Respond with the figure and its unit, in that order.

# count of solved cases: 3
>>> result("N=C(N)NCCC[C@H](N)C(=O)O")
"0.072 ± 0.11 mmol/gDW/hr"
>>> result("N[C@@H](CC(=O)O)C(=O)O")
"0.0048 ± 0.011 mmol/gDW/hr"
>>> result("CSCC[C@H](N)C(=O)O")
"0.0024 ± 0.0082 mmol/gDW/hr"

stdin: Which measured flux 6 - 18 hps value corresponds to `N[C@@H](Cc1ccc(O)cc1)C(=O)O` ?
stdout: -0.0051 ± 0.0044 mmol/gDW/hr

stdin: Next compound up: `N[C@@H](CO)C(=O)O`
stdout: -0.019 ± 0.021 mmol/gDW/hr

stdin: Please answer likewise for `C[C@@H](O)[C@H](N)C(=O)O`
stdout: -0.014 ± 0.026 mmol/gDW/hr

stdin: Input `CC[C@H](C)[C@H](N)C(=O)O`
stdout: 0.017 ± 0.023 mmol/gDW/hr

stdin: Now give it for `NCCCC[C@H](N)C(=O)O` too.
stdout: 0.00 ± 0.064 mmol/gDW/hr

stdin: Same read-out for `C[C@H](N)C(=O)O` ?
stdout: -0.023 ± 0.017 mmol/gDW/hr

stdin: Param item: `NCC(=O)O`
stdout: -0.014 ± 0.028 mmol/gDW/hr

----------
test system: synchronised Plasmodium falciparum 3D7 cultures; assay: In vitro flux measurements of glucose and amino acids in spent media; format: cell-based; settings: late schizont stage; ± SD; positive = into infected red blood cell, negative = efflux into media
The molecules listed here are annotated with their flux 42 - 48 hps.
Please state the value followed by its unit.

Take a look at these entries with their results.
>>> result("OC[C@H]1OC(O)[C@H](O)[C@@H](O)[C@@H]1O (stereo partly shown)")
"0.60 ± 0.21 mmol/gDW/hr"
>>> result("NC(=O)C[C@H](N)C(=O)O")
"0.070 ± 0.17 mmol/gDW/hr"
>>> result("CC(C)C[C@H](N)C(=O)O")
"0.047 ± 0.10 mmol/gDW/hr"

stdin: Value lookup for flux 42 - 48 hps; key = `N[C@@H](CC(=O)O)C(=O)O`
stdout: 0.019 ± 0.058 mmol/gDW/hr

stdin: Quick one: `CC[C@H](C)[C@H](N)C(=O)O`
stdout: 0.081 ± 0.14 mmol/gDW/hr

stdin: Okay, and `N[C@@H](Cc1ccccc1)C(=O)O` ?
stdout: 0.025 ± 0.023 mmol/gDW/hr

stdin: And the next one, `N[C@@H](CO)C(=O)O` ?
stdout: 0.062 ± 0.11 mmol/gDW/hr

----------
tested on: synchronised Plasmodium falciparum 3D7 cultures; experiment: In vitro flux measurements of glucose and amino acids in spent media; assay type: cell-based; details: late trophozoite stage; ± SD; positive = into infected red blood cell, negative = efflux into media
Measure: flux 30 - 36 hps (mmol/gDW/hr)
// units = mmol/gDW/hr; emit number, no label

Recorded results for 8 compounds are shown here.
>>> numeric_value("N[C@@H](Cc1ccccc1)C(=O)O")
-0.035
>>> numeric_value("CC(C)[C@H](N)C(=O)O")
-0.0096
>>> numeric_value("N[C@@H](CO)C(=O)O")
-0.062
>>> numeric_value("OC[C@H]1OC(O)[C@H](O)[C@@H](O)[C@@H]1O (stereo partly shown)")
3.2
>>> numeric_value("C[C@@H](O)[C@H](N)C(=O)O")
-0.038
>>> numeric_value("N=C(N)NCCC[C@H](N)C(=O)O")
-0.15
>>> numeric_value("CC[C@H](C)[C@H](N)C(=O)O")
-0.062
>>> numeric_value("N[C@@H](CC(=O)O)C(=O)O")
0.00

stdin: Lab note: need flux 30 - 36 hps with synchronised Plasmodium falciparum 3D7 cultures for entry `NCC(=O)O` , please look it up.
stdout: -0.0093

stdin: // repeat for `NC(=O)C[C@H](N)C(=O)O` and report
stdout: -0.10

stdin: What do we get for `C[C@H](N)C(=O)O` ?
stdout: -0.041

stdin: Another: `NCCCC[C@H](N)C(=O)O`
stdout: 0.038

stdin: # iterate: `N[C@@H](Cc1c[nH]c2ccccc12)C(=O)O`
stdout: 0.010
